Biological target: T1, extracellular domain of CD47 fused to a His(×6)-Avi-tag (Homo sapiens, UniProt Q08722)
T1 construct: CD47, extracellular domain; also called CD47-ECD
T1 sequence (Q08722 whole entry, looked up, the tested form may be a part): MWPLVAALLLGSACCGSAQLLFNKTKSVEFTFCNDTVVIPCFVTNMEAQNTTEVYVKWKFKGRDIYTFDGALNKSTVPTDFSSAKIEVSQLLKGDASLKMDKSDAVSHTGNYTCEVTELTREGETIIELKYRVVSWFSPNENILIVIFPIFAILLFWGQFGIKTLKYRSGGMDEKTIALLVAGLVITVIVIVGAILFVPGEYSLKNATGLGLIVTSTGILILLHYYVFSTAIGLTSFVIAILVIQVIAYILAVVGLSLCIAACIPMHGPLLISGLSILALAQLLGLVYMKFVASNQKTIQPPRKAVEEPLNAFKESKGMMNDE
Assay: ELISA; CD47-ECD coated on plates; phage-scFv site saturation mutants of BC31M4, detected with anti-M13-HRP; pH 6.5 and pH 7.4
Settings: one partner purified
measured parameter: binding result

binder	result
BC31M4 (phage-scFv form) with VL H38 replaced by lysine (scFv, V domains shown, VH of BC31M4: as the variable region of the heavy chain of m6 (PDB 7WN8) with A instead of T at residue 108 of HCDR3 (IMGT numbering); scFv linker; VL of BC31M4 (as the variable region of the light chain of m6, PDB 7WN8) with H38 (LCDR1, IMGT numbering) changed; also called H38K) VH: QVQLVQSGAEVKKPGASVKVSCKASGYTFTSYGISWVRQAPGQGLEWMGWISAYNGNTNYAQKLQGRVTMTTDTSTSTAYMELRSLRSDDTAVYYCARGAVYFDYWGQGTLVTVSS VL: EIVLTQSPATLSLSPGERATLSCRASQSLSRNKLAWYQQKPGQPPRLLIHWASTRESGVPDRFSGSGSGTDFTLTISSLQAEDVAVYYCQQHTQNTWTFGQGTKVEIK	binds
BC31M4 (phage-scFv form) with VL H107 replaced by lysine (scFv, V domains shown, VH of BC31M4: as the variable region of the heavy chain of m6 (PDB 7WN8) with A instead of T at residue 108 of HCDR3 (IMGT numbering); scFv linker; VL of BC31M4 (as the variable region of the light chain of m6, PDB 7WN8) with H107 (LCDR3, IMGT numbering) changed; also called H107K) VH: QVQLVQSGAEVKKPGASVKVSCKASGYTFTSYGISWVRQAPGQGLEWMGWISAYNGNTNYAQKLQGRVTMTTDTSTSTAYMELRSLRSDDTAVYYCARGAVYFDYWGQGTLVTVSS VL: EIVLTQSPATLSLSPGERATLSCRASQSLSRNHLAWYQQKPGQPPRLLIHWASTRESGVPDRFSGSGSGTDFTLTISSLQAEDVAVYYCQQKTQNTWTFGQGTKVEIK	binds
BC31M4 (phage-scFv form) with VL H107 replaced by arginine (scFv, V domains shown, VH of BC31M4: as the variable region of the heavy chain of m6 (PDB 7WN8) with A instead of T at residue 108 of HCDR3 (IMGT numbering); scFv linker; VL of BC31M4 (as the variable region of the light chain of m6, PDB 7WN8) with H107 (LCDR3, IMGT numbering) changed) VH: QVQLVQSGAEVKKPGASVKVSCKASGYTFTSYGISWVRQAPGQGLEWMGWISAYNGNTNYAQKLQGRVTMTTDTSTSTAYMELRSLRSDDTAVYYCARGAVYFDYWGQGTLVTVSS VL: EIVLTQSPATLSLSPGERATLSCRASQSLSRNHLAWYQQKPGQPPRLLIHWASTRESGVPDRFSGSGSGTDFTLTISSLQAEDVAVYYCQQRTQNTWTFGQGTKVEIK	binds

Reference source: paper PMC9844003
